- system.name: PKN3 (Homo sapiens)
- Sequence (Q6P5Z2 whole entry): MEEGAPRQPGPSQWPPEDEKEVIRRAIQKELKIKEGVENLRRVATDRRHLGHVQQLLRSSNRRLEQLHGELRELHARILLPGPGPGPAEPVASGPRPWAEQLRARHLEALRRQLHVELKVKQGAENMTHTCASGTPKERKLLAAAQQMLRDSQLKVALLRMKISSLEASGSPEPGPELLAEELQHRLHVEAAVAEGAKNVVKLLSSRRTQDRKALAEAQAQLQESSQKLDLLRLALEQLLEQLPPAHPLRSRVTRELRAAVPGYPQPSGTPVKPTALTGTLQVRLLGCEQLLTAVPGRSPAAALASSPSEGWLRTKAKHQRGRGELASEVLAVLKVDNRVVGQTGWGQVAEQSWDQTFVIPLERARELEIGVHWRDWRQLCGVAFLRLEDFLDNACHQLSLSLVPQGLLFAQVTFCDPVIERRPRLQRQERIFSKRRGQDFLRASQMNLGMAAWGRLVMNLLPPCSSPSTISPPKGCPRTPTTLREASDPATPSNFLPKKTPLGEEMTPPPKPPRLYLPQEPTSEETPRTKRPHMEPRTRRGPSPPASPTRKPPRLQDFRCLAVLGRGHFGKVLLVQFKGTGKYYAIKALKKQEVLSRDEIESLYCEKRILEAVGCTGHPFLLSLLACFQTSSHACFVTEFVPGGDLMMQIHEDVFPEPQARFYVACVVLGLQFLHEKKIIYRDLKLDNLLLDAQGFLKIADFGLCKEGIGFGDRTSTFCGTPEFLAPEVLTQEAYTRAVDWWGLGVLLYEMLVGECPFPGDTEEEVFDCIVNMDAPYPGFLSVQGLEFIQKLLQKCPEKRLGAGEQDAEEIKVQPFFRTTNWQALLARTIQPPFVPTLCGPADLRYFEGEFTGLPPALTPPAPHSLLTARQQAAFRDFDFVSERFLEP
- experimental.details: PKN3 kinase inhibition, off-chip mobility shift assay
- Type: biochemical
- Design: Full-length, FLAG-tagged human PKN1, PKN2 and PKN3 were expressed in mammalian HEK-293 cells
- test.context: absence of lipids; fit to competitive inhibition; ±S.D., n=2; read-out: PKN3, Ki
parameter.measured: Ki

// each listed compound needs a value for Ki
1. CN(C)CCCn1cc(C2=C(c3c[nH]c4ccccc34)C(=O)NC2=O)c2ccccc21 [Compound 3, GF 109203X]
2. O=C1Nc2ccc3ncsc3c2/C1=C/c1c[nH]cn1
3. CO[C@@H]1[C@H](N(C)C(=O)c2ccccc2)C[C@H]2O[C@]1(C)n1c3ccccc3c3c4c(c5c6ccccc6n2c5c31)C(=O)NC4

Data returned:
1. 2300 nM
2. 240 nM
3. < 0.2 nM

// each listed compound needs a value for Ki
1. Cn1cc(C2=C(c3cn(CCCSC(=N)N)c4ccccc34)C(=O)NC2=O)c2ccccc21
2. Nc1nc(Nc2ccc(S(N)(=O)=O)cc2)nn1C(=S)Nc1c(F)cccc1F
3. CNCCNS(=O)(=O)c1cccc2cnccc12
4. Oc1ccc(-c2nc(-c3ccncc3)c(-c3ccc(F)cc3)[nH]2)cc1

Data returned:
170 nM
34 nM
10 nM
4 nM

###

- system.name: UniProt Q16512
- Sequence (Q16512 whole entry): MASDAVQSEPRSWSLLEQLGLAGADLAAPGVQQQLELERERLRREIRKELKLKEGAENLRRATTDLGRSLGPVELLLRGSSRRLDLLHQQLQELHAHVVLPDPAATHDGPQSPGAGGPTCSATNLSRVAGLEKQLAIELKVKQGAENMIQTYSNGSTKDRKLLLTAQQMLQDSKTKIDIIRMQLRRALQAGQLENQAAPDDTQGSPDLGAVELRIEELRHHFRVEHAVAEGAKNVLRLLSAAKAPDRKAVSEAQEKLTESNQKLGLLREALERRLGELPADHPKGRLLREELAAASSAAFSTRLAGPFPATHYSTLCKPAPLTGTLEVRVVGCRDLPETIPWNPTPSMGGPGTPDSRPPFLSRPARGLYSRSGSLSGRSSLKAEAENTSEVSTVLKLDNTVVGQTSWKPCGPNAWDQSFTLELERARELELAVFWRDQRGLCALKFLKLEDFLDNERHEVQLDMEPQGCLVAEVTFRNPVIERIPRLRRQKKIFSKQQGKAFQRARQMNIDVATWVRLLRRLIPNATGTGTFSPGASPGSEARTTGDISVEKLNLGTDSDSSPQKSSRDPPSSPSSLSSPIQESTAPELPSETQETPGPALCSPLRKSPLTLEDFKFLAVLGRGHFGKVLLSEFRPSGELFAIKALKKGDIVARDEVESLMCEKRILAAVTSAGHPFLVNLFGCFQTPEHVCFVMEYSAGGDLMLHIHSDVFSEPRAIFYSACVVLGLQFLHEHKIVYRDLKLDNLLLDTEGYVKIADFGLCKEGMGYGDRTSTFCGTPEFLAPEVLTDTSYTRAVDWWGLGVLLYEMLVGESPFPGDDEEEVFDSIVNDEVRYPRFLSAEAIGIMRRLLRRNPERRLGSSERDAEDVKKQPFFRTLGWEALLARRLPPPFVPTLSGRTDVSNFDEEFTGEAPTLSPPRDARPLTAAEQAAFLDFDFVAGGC
- experimental.details: PKN1 kinase inhibition, off-chip mobility shift assay
- Format: biochemical
- Set-up: Full-length, FLAG-tagged human PKN1, PKN2 and PKN3 were expressed in mammalian HEK-293 cells; host or cells: HEK-293 (transient transfection, pcDNA4/TO)
- test.context: product inhibition, competitive with respect to ATP; 3 μM peptide, 31–1000 μM ATP, 1 nM enzyme, 100 μM arachidonic acid; read-out: PKN1 Ki
parameter.measured: pKi
Numbers only, as −log10 of the molar value.

Data request: // lookup pKi for `Nc1ncnc2c1ncn2[C@@H]1O[C@H](COP(=O)(O)OP(=O)(O)O)[C@@H](O)[C@H]1O`
Data returned: 4.28

###

- system.name: PKN3 (Homo sapiens)
- experimental.details: PKN3 kinase inhibition, off-chip mobility shift assay
- Type: biochemical
- Set-up: Full-length, FLAG-tagged human PKN1, PKN2 and PKN3 were expressed in mammalian HEK-293 cells
parameter.measured: Ki
Give the figure together with its unit, number first.

Data request: // lookup Ki for Cc1ccc(-c2nn(C(C)(C)C)c3ncnc(N)c23)cc1 [Compound 8, PP1]
Data returned: 1.3 nM

###

- system.name: PKN2 (Homo sapiens)
- Sequence (Q16513 whole entry): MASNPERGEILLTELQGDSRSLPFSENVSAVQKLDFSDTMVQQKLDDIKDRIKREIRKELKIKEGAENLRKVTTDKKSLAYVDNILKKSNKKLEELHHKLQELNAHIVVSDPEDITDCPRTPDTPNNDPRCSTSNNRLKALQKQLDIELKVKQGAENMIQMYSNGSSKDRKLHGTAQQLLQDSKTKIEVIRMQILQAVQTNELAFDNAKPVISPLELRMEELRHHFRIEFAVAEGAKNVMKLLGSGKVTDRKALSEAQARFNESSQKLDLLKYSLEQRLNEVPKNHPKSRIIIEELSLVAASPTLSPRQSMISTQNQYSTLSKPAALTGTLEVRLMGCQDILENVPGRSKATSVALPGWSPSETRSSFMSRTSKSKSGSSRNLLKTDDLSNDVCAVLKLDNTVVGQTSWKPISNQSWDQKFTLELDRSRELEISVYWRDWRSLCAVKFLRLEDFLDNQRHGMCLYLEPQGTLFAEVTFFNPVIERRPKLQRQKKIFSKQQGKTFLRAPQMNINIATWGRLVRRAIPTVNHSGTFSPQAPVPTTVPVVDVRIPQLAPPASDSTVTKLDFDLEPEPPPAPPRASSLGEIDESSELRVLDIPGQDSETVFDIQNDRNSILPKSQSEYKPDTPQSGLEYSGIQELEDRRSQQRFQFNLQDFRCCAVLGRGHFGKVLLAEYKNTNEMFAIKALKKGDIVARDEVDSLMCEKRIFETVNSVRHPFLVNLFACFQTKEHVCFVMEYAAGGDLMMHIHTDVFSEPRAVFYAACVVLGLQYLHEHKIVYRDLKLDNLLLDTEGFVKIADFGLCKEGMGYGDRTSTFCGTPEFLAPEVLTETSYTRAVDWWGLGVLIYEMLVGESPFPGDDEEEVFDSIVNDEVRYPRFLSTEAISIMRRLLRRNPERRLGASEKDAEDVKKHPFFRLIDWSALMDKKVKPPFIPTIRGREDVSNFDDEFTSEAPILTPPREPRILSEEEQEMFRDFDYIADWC
- experimental.details: PKN2 kinase inhibition, off-chip mobility shift assay
- Type: biochemical
- Parameters: Full-length, FLAG-tagged human PKN1, PKN2 and PKN3 were expressed in mammalian HEK-293 cells; host or cells: HEK-293 (transient transfection, pcDNA4/TO)
- test.context: absence of lipids; fit to competitive inhibition; ±S.D., n=2; read-out: PKN2, Ki
For each entry below, report its log10(Ki) value.
Hey, these are logged values: log10 of Ki, nM being the unit before logging.

In [3]: df
Out[3]:
                                   compound          system_name  assay_value
0  CN(C)CCCn1cc(C2=C(c3c[nH]c4ccccc34)C(=O)NC2=O)c2ccccc21 [Compound 3, GF 109203X]  PKN2 (Homo sapiens)         1.95

// each listed compound needs a value for log10(Ki)
1. Nc1nc(Nc2ccc(S(N)(=O)=O)cc2)nn1C(=S)Nc1c(F)cccc1F
2. O=C1Nc2ccc3ncsc3c2/C1=C/c1c[nH]cn1
3. CNCCNS(=O)(=O)c1cccc2cnccc12
4. Oc1ccc(-c2nc(-c3ccncc3)c(-c3ccc(F)cc3)[nH]2)cc1
5. Cn1cc(C2=C(c3cn(CCCSC(=N)N)c4ccccc34)C(=O)NC2=O)c2ccccc21

Data returned:
1. 1.08
2. 1.61
3. 3.26
4. 3.36
5. 1.23
